biological target: α5β1 integrin (on K562 cells) (UniProt P08648 42-1049; P05556 21-798, limits assumed); assay: cell-based or functional assay
Sequence (P08648 42-1049 limits assumed, chain 1 of 2): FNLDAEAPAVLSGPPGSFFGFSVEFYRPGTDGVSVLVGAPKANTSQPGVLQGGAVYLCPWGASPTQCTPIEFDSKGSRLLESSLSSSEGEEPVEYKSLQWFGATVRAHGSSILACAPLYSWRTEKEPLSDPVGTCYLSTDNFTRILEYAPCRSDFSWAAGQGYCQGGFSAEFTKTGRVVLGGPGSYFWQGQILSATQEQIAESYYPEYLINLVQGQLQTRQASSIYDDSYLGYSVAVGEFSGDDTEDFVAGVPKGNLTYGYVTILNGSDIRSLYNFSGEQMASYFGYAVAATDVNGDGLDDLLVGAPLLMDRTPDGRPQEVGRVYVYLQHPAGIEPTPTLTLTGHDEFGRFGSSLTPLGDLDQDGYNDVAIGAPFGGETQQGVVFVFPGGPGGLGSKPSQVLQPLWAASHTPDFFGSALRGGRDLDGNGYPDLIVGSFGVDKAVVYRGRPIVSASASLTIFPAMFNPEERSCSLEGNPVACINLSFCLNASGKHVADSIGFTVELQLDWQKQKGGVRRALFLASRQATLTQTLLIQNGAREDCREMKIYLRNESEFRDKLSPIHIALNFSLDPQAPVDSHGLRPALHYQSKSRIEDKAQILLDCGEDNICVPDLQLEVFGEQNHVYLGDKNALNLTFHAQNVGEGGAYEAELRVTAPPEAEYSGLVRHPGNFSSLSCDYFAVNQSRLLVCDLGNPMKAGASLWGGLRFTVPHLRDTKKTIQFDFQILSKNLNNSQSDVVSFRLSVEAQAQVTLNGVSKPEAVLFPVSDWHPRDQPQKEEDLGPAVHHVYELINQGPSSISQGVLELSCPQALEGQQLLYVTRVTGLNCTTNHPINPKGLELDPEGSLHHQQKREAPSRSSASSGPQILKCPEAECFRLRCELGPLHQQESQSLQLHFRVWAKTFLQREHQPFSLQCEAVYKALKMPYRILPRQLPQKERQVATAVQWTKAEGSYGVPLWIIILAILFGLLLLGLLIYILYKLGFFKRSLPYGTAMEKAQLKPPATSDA
Sequence (P05556 21-798 limits assumed, chain 2 of 2): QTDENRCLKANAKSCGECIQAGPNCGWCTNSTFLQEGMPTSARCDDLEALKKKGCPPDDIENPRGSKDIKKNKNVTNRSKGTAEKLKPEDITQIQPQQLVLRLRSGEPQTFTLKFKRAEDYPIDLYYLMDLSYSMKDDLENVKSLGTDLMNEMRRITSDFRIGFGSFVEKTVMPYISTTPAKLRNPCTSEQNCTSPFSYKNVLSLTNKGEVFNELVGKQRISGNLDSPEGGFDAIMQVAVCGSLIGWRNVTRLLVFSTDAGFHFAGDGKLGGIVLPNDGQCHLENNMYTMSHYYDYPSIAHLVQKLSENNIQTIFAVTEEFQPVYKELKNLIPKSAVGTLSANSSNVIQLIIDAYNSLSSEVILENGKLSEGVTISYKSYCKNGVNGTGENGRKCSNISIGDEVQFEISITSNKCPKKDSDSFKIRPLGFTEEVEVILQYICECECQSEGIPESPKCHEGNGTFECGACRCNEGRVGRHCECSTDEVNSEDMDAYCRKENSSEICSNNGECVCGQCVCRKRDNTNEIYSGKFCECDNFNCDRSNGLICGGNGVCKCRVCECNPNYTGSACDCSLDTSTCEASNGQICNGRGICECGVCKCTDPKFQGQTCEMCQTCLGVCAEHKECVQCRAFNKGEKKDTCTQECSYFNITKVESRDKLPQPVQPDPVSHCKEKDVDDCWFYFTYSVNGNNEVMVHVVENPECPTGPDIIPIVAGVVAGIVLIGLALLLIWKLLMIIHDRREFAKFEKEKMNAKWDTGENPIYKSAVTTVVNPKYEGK
RECORDED ENDPOINT: Percent Inhibition (K562 adhesion to FN9-10 peptide of fibronectin, 5 µg/ml) (%)

1. sc 264 (antibody, V domains shown, RGD in heavy chain CDR3) VH: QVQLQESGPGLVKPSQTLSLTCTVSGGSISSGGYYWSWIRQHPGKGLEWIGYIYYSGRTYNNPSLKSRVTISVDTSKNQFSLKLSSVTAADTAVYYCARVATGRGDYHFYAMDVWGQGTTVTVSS VL: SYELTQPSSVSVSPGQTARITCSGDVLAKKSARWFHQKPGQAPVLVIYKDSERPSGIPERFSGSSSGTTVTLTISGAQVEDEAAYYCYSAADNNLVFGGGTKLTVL; -4
